Source: paper PMC8284453

test system: Enterobacterales expressing class C cephalosporinases; settings: E. coli 128 (AmpC, SHV-12, TEM-1, Toho-2)
TEST_READOUT: MIC

INPUT: # MIC lookup, item "Nc1nc(/C(=C/CC(=O)O)C(=O)N[C@@H]2C(=O)N3C(C(=O)O)=CCS[C@H]23)cs1"
OUTPUT: 2 µg/mL

INPUT: Similarly, "C[C@@H](O)[C@H]1C(=O)N2C(C(=O)O)=C(S[C@H]3CC[S@@+]([O-])C3)S[C@H]12" ?
OUTPUT: 0.03 µg/mL

INPUT: # iterate: "C[C@@H](O)[C@H]1C(=O)N2C(C(=O)O)=C(SC3CN(C4=NCCS4)C3)[C@H](C)[C@H]12"
OUTPUT: ≤ 0. 016 μg/ml

Proceeding to the next molecule to report its MIC.
INPUT: What value of measured MIC is listed for "CC1(C)S[C@@H]2[C@H](NC(=O)[C@H](N)c3ccc(O)cc3)C(=O)N2[C@H]1C(=O)O" ?
OUTPUT: 128 µg/mL

----------
biological target: UniProtKB Q9EXV5
TEST_READOUT: pKi
Recall that pKi is obtained by taking minus log10 of the concentration measured in molar.

INPUT: Can you look up the measured pKi of "CCC(=O)N[C@H]1Cc2cccc(C(=O)O)c2OB1O" for me?
OUTPUT: 8.00

----------
Target: CTX-M-15 (Escherichia coli, UniProt Q9EXV5)
Sequence (Q9EXV5 entry or part of it): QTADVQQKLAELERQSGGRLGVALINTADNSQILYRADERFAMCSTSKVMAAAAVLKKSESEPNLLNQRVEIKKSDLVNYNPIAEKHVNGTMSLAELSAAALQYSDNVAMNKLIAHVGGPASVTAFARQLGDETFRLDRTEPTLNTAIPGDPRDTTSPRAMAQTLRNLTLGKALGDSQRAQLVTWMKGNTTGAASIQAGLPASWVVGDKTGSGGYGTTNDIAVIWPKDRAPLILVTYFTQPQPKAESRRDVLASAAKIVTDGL
Test: IC50 determination against purified β-lactamase
Assay type: biochemical
Design: made in house; host or cells: E. coli BL21(DE3), plasmid pET-CTX-M-15 (pET9a)
Procedure: An equal volume of enzyme was added (assay concentrations, 0.6 nM P99AmpC, 21 nM CTX-M-15, 3 nM KPC-2, 100 nM SHV-5), and the mixtures were preincubated for 15 min at 37°C. For AmpC, nitrocefin was then added to obtain a final concentration of 100 μM, and the absorbance at a wavelength (λ) of 486 nm (representing hydrolysis of the nitrocefin β-lactam ring) was monitored immediately using a BioTek Powerwave XS2 microplate reader. […]
TEST_READOUT: pIC50
Scale note: pIC50 = -log10(concentration in M).

INPUT: Could you share what pIC50 was measured for "CCC(=O)N[C@H]1Cc2cccc(C(=O)O)c2OB1O" , tested on CTX-M-15 (Escherichia coli, UniProt Q9EXV5)?
OUTPUT: 7.70

----------
system: Enterobacterales expressing class D oxacillinases (OXA-48/48-like); test: organism not typed; type: cell-based, E. coli, K. pneumoniae; conditions: K. pneumoniae 722870 (OXA-48)
TEST_READOUT: MIC (µg/mL)
Provide only the numeric value, understood in µg/mL.

INPUT: MIC for C[C@@H](O)[C@H]1C(=O)N2C(C(=O)O)=C(S[C@H]3CC[S@@+]([O-])C3)S[C@H]12 [Sulopenem] ?
OUTPUT: 8

Others:
INPUT: Give the measured MIC of C[C@@H](O)[C@H]1C(=O)N2C(C(=O)O)=C(SC3CN(C4=NCCS4)C3)[C@H](C)[C@H]12 [Tebipenem] .
OUTPUT: 1

INPUT: Field entry: Nc1nc(/C(=C/CC(=O)O)C(=O)N[C@@H]2C(=O)N3C(C(=O)O)=CCS[C@H]23)cs1 [CTB, ceftibuten]
OUTPUT: 8

----------
target: CMY-2 (Klebsiella pneumoniae, UniProt Q48434); construct: made in house; host or cells: E. coli BL21(DE3), pET9a; assay: IC50 determination against purified β-lactamase; assay type: biochemical; details: substrate nitrocefin; mean from duplicate measurements; read-out: IC50
// IC50 lookup, one value per entry
Give the quantity in nM, number only.

INPUT: # get_value(readout='IC50', item= NC(=O)[C@@H]1CC[C@@H]2CN1C(=O)N2OS(=O)(=O)O [Avibactam, avibactam] )
OUTPUT: 7

Field: next compound
INPUT: What value of IC50 has been reported for the following compound? C[C@]1(Cn2ccnn2)[C@H](C(=O)O)N2C(=O)C[C@H]2S1(=O)=O [Tazobactam, tazobactam]
OUTPUT: 410

----------
Measured MIC, listed per entry for reference.
tested on: Enterobacterales expressing class D oxacillinases (OXA-48/48-like); assay: organism not typed; type: cell-based, E. coli, K. pneumoniae; details: K. pneumoniae 664439 (OXA-48)
Only the number, expressed in µg/mL, is required.

Examples with their reported MIC follow.
INPUT: API: value(readout= MIC, system= Enterobacterales expressing class D oxacillinases (OXA-48/48-like), query= "C[C@@H](O)[C@H]1C(=O)N2C(C(=O)O)=C(S[C@H]3CC[S@@+]([O-])C3)S[C@H]12" )
OUTPUT: 8

INPUT: Same question for "Nc1nc(/C(=C/CC(=O)O)C(=O)N[C@@H]2C(=O)N3C(C(=O)O)=CCS[C@H]23)cs1" please.
OUTPUT: 16

Next up:
INPUT: Request body: readout MIC, system Enterobacterales expressing class D oxacillinases (OXA-48/48-like), query "C[C@@H](O)[C@H]1C(=O)N2C(C(=O)O)=C(SC3CN(C4=NCCS4)C3)[C@H](C)[C@H]12" . Return the value.
OUTPUT: 4

----------
biological target: CMY-2 (Klebsiella pneumoniae, UniProt Q48434); construct: made in house; host or cells: E. coli BL21(DE3), pET9a; assay: IC50 determination against purified β-lactamase; format: biochemical
TEST_READOUT: pIC50
pIC50 here: minus log base 10 of the concentration, concentration in moles per litre.

INPUT: Item "CCC(=O)N[C@H]1Cc2cccc(C(=O)O)c2OB1O" has what recorded pIC50?
OUTPUT: 8.00

----------
tested on: Enterobacterales expressing class D oxacillinases (OXA-48/48-like); test: organism not typed; format: cell-based, E. coli, K. pneumoniae; conditions: E. coli 664526 (OXA-48)
TEST_READOUT: MIC (µg/mL)
Lab book: enter the figure in µg/mL, no units written.

INPUT: Can you look up the measured MIC of "C[C@@H](O)[C@H]1C(=O)N2C(C(=O)O)=C(S[C@H]3CC[S@@+]([O-])C3)S[C@H]12" for me?
OUTPUT: 8

INPUT: Now consider "Nc1nc(/C(=C/CC(=O)O)C(=O)N[C@@H]2C(=O)N3C(C(=O)O)=CCS[C@H]23)cs1" and answer again.
OUTPUT: 16

INPUT: And then "C[C@@H](O)[C@H]1C(=O)N2C(C(=O)O)=C(SC3CN(C4=NCCS4)C3)[C@H](C)[C@H]12" , what is it?
OUTPUT: 4

----------
biological target: P99AmpC (Enterobacter cloacae, UniProt P05364); experiment: IC50 determination against purified β-lactamase; details: substrate nitrocefin; mean from duplicate measurements
Sequence (P05364 21-381): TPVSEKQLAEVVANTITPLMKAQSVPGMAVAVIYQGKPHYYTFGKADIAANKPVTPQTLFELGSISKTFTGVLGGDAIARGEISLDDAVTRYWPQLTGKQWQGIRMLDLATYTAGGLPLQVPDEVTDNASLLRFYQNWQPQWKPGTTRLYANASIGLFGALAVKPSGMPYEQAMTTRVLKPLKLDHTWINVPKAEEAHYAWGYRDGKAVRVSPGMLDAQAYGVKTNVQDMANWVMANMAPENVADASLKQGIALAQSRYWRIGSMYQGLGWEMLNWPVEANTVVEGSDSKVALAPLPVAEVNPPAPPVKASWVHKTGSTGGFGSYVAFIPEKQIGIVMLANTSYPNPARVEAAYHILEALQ
TEST_READOUT: pIC50
Entry type: numeric. Quantity: pIC50, the -log10 of concentration in molar units.

INPUT: # input compound: "NC(=O)[C@@H]1CC[C@@H]2CN1C(=O)N2OS(=O)(=O)O" ; wanted: its pIC50
OUTPUT: 7.70

----------
tested on: Enterobacterales expressing class C cephalosporinases; conditions: E. coli SI-PO26 (AmpC, CMY-2, TEM-1)
Listed next: entries and their corresponding MIC.
Kindly answer with a numeric value in µg/mL, unit omitted.

INPUT: I would be grateful if you could share the reported MIC for C[C@@H](O)[C@H]1C(=O)N2C(C(=O)O)=C(S[C@H]3CC[S@@+]([O-])C3)S[C@H]12 [Sulopenem] .
OUTPUT: 0.12

Turning to the following compound.
INPUT: Tell me the measured MIC of C[C@@H](O)[C@H]1C(=O)N2C(C(=O)O)=C(SC3CN(C4=NCCS4)C3)[C@H](C)[C@H]12 [Tebipenem] , please.
OUTPUT: 0.03

----------
tested on: Enterobacterales expressing class D oxacillinases (OXA-48/48-like); experiment: organism not typed; format: cell-based, E. coli, K. pneumoniae; settings: K. pneumoniae BAH (OXA-204)
TEST_READOUT: MIC

Answered cases to consult:
INPUT: What MIC appears in the records for this compound with Enterobacterales expressing class D oxacillinases (OXA-48/48-like)? "CC1(C)S[C@@H]2[C@H](NC(=O)[C@H](N)c3ccc(O)cc3)C(=O)N2[C@H]1C(=O)O"
OUTPUT: ≥ 256 µg/mL

INPUT: Item: "C[C@@H](O)[C@H]1C(=O)N2C(C(=O)O)=C(S[C@H]3CC[S@@+]([O-])C3)S[C@H]12"
OUTPUT: 4 µg/mL

INPUT: // next record "Nc1nc(/C(=C/CC(=O)O)C(=O)N[C@@H]2C(=O)N3C(C(=O)O)=CCS[C@H]23)cs1"
OUTPUT: ≥ 64 µg/mL

With those in mind, consider the next compound.
INPUT: I'm curious: which MIC was measured for "C[C@@H](O)[C@H]1C(=O)N2C(C(=O)O)=C(SC3CN(C4=NCCS4)C3)[C@H](C)[C@H]12" tested on Enterobacterales expressing class D oxacillinases (OXA-48/48-like)?
OUTPUT: 0.5 µg/mL
